# key: entry, value: viability, T/C
Tested on: KRAS-mutant PDC complex spheroid viability;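 further: viability read after seven days of compound exposure; 100% = DMSO vehicle-treated spheroids so lower means less viable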
assayExplanation: Anticancer human tumor 186277-243-T-J2-PDC patient-derived colon adenocarcinoma cell line growth inhibition [KRAS2]
particulars: second compound 0.1 µM; first compound 1 µM; stronger effect = lower value
The reply should contain only the number, in %.

Reference set, count: 2
Given CC1OCC2(CCN(c3cnc(Sc4ccnc(N)c4Cl)c(N)n3)CC2)C1N (centres undefined) + C=CC(=O)N1CCN(c2nc(=O)n(-c3c(C)ccnc3C(C)C)c3nc(-c4c(O)cccc4F)c(F)cc23)C(C)C1 , state its recorded viability, T/C. 105

What do you have for COc1cc(Nc2ncc3c(n2)-c2ccc(Cl)cc2C(c2c(F)cccc2OC)=NC3)ccc1C(=O)O + CNCc1ccccc1-c1csc(C(C)Nc2nc(C)nc3cc(OC)c(OC)cc23)c1 ? 34.1

Pending molecule:
I am curious: what viability, T/C value has been reported for Cn1nccc1Nc1nccc(-c2cc3c(s2)C(C)(C)N(CCN2CCOCC2)C3=O)n1 + COc1cc2nc(C)nc(NC(C)c3cc(N)cc(C(F)(F)F)c3)c2cc1OC1CCOC1 ? 9.64
